- ASSAY_SYSTEM: full-length P. pyralis luciferase (Photinus pyralis, UniProt P08659, K549A/L550V/N119G/N50D/S548I)
- Sequence (P08659 whole entry N50D/N119G/S548I/K549A/L550V, looked up): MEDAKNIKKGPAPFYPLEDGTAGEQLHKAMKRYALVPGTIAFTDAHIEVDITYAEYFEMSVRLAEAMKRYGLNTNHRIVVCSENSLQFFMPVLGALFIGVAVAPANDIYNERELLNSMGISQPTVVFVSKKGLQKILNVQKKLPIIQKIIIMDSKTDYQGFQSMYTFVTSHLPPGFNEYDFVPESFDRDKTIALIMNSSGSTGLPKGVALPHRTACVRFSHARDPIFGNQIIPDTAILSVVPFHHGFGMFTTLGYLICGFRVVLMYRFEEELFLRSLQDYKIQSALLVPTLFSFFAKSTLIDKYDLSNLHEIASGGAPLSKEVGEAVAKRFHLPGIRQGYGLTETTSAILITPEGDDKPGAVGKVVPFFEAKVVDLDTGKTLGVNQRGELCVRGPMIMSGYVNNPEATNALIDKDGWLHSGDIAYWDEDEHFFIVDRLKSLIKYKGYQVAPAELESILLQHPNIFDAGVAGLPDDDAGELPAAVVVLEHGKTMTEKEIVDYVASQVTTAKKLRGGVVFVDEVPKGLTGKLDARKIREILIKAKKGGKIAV
- Assay type: cell-based
- CONDITION_DETAILS: CC_NCI screening; full-length luciferase counter-screen; normalized to on-plate 0.3% DMSO controls
Please map values of Luciferase Assay Z-score to classes as shown: bucket A: < -2; bucket B: ≥ -2 and < -0.2; bucket C: ≥ -0.2

Incoming: Sort CCNC(=O)c1noc(-c2cc(C(C)C)c(O)cc2O)c1-c1ccc(CN2CCOCC2)cc1 into one of the categories.
Outgoing: bucket B

Incoming: Sort C=C(c1ccc(C(=O)O)cc1)c1cc2c(cc1C)C(C)(C)CCC2(C)C into one of the categories.
Outgoing: bucket C

Incoming: Sort CNC(=O)c1ccccc1Sc1ccc2c(/C=C/c3ccccn3)n[nH]c2c1 [Axitinib] into one of the categories.
Outgoing: bucket A

Incoming: Sort CC(C)C[C@H](NC(=O)[C@H](Cc1ccccc1)NC(=O)c1cnccn1)B(O)O [BORTEZOMIB] into one of the categories.
Outgoing: bucket B

Incoming: Sort Cc1ccc(Nc2nccc(N(C)c3ccc4c(C)n(C)nc4c3)n2)cc1S(N)(=O)=O.Cl [Pazopanib hydrochloride] into one of the categories.
Outgoing: bucket A

Incoming: Sort COc1cc2ncn(-c3cc(OCc4ccccc4C(F)(F)F)c(C(N)=O)s3)c2cc1OC [GW 843682X] into one of the categories.
Outgoing: bucket C

Incoming: Sort Cl.Cn1c(CCCC(=O)O)nc2cc(N(CCCl)CCCl)ccc21 [Bendamustine hydrochloride] into one of the categories.
Outgoing: bucket C

Incoming: Sort CC1(C)CCC(c2ccc(Cl)cc2)=C(CN2CCN(c3ccc(C(=O)NS(=O)(=O)c4ccc(N[C@H](CCN5CCOCC5)CSc5ccccc5)c(S(=O)(=O)C(F)(F)F)c4)cc3)CC2)C1 into one of the categories.
Outgoing: bucket C

Incoming: Sort NC1(c2ccc(-c3nc4ccn5c(=O)[nH]nc5c4cc3-c3ccccc3)cc2)CCC1 into one of the categories.
Outgoing: bucket B

Incoming: Sort O=C(O)C(=O)O.[NH-][C@@H]1CCCC[C@H]1[NH-].[Pt+2] into one of the categories.
Outgoing: bucket C

Incoming: Sort Nc1nc(Cl)nc2c1ncn2[C@H]1C[C@H](O)[C@@H](CO)O1 into one of the categories.
Outgoing: bucket B

Incoming: Sort CCc1c2c(nc3ccc(OC(=O)N4CCC(N5CCCCC5)CC4)cc13)-c1cc3c(c(=O)n1C2)COC(=O)[C@]3(O)CC.Cl [Irinotecan hydrochloride] into one of the categories.
Outgoing: bucket B

Incoming: Sort CN1CCN(CCOc2cc(OC3CCOCC3)c3c(Nc4c(Cl)ccc5c4OCO5)ncnc3c2)CC1 [AZD 0530] into one of the categories.
Outgoing: bucket C

Incoming: Sort CC1=C(/C=C/C(C)=C/C=C/C(C)=C/C(=O)O)C(C)(C)CCC1 into one of the categories.
Outgoing: bucket A

Incoming: Sort CN1CCN(c2ccc3nc(-c4c(N)c5c(F)cccc5[nH]c4=O)[nH]c3c2)CC1 into one of the categories.
Outgoing: bucket B

###

- ASSAY_SYSTEM: full-length P. pyralis luciferase (Photinus pyralis, UniProt P08659, K549A/L550V/N119G/N50D/S548I)
- Format: cell-based
- CONDITION_DETAILS: CC_NCI screening; full-length luciferase counter-screen luminescence; normalized to on-plate 0.3% DMSO controls
Structures can show the parent of a compound that is named as a salt.
Hi there, I'd appreciate the recorded Luciferase Assay % Lum for every entry that follows.
Give just the number in %; leave the unit off.

Incoming: Please list Luciferase Assay % Lum recorded for the molecule CNC(=O)c1cc(Oc2ccc(NC(=O)Nc3ccc(Cl)c(C(F)(F)F)c3)c(F)c2)ccn1 [Regorafenib]
Outgoing: 83.68

Incoming: Please list Luciferase Assay % Lum recorded for the molecule Cc1ccc(F)c(NC(=O)Nc2ccc(-c3cccc4[nH]nc(N)c34)cc2)c1 [ABT-869]
Outgoing: 60.04

Incoming: Please list Luciferase Assay % Lum recorded for the molecule CC(/C=C/C(=O)NO)=C\[C@@H](C)C(=O)c1ccc(N(C)C)cc1 [TRICHOSTATIN A]
Outgoing: 33.58

Incoming: Please list Luciferase Assay % Lum recorded for the molecule Cc1cc(N2CCOCC2)cc2[nH]c(-c3c(NC[C@@H](O)c4cccc(Cl)c4)cc[nH]c3=O)nc12 [BMS-536924]
Outgoing: 93.73

Incoming: Please list Luciferase Assay % Lum recorded for the molecule CCCS(=O)(=O)Nc1ccc(F)c(C(=O)c2c[nH]c3ncc(-c4ccc(Cl)cc4)cc23)c1F [Vemurafenib]
Outgoing: 93.28

Incoming: Please list Luciferase Assay % Lum recorded for the molecule COc1cccc2c1C(=O)c1c(O)c3c(c(O)c1C2=O)C[C@@](O)(C(=O)CO)C[C@@H]3O[C@H]1C[C@H](N)[C@H](O)[C@H](C)O1 [Doxorubicin hydrochloride]
Outgoing: 78.74

Incoming: Please list Luciferase Assay % Lum recorded for the molecule Clc1ccc(Nc2nnc(Cc3ccncc3)c3ccccc23)cc1 [VATALANIB]
Outgoing: 78.45

Incoming: Please list Luciferase Assay % Lum recorded for the molecule Cc1cc2c(F)c(Oc3ncnn4cc(OC[C@@H](C)O)c(C)c34)ccc2[nH]1 [Brivanib]
Outgoing: 64.23

Incoming: Please list Luciferase Assay % Lum recorded for the molecule CCc1cc(Nc2nccc(-c3c(-c4ccc(OC)c(C(=O)Nc5c(F)cccc5F)c4)nc4ccccn34)n2)c(OC)cc1N1CCC(N2CCN(S(C)(=O)=O)CC2)CC1 [GSK1904529A]
Outgoing: 86.97

Incoming: Please list Luciferase Assay % Lum recorded for the molecule O=C(CCCCCCC(=O)Nc1ccccc1)NO [Vorinostat]
Outgoing: 97.95

Incoming: Please list Luciferase Assay % Lum recorded for the molecule CN1CCN(CCOc2cc(OC3CCOCC3)c3c(Nc4c(Cl)ccc5c4OCO5)ncnc3c2)CC1 [SARACATINIB]
Outgoing: 107.97

Incoming: Please list Luciferase Assay % Lum recorded for the molecule COc1cccc(-c2cc(=O)c3ccccc3o2)c1N [PD 98059]
Outgoing: 90.17

Incoming: Please list Luciferase Assay % Lum recorded for the molecule Oc1ccc(-c2nc(-c3ccncc3)c(-c3ccc(F)cc3)[nH]2)cc1 [SB 202190]
Outgoing: 79.13

Incoming: Please list Luciferase Assay % Lum recorded for the molecule O=C1CCC(N2C(=O)c3ccccc3C2=O)C(=O)N1 (stereo not shown) [Thalidomide]
Outgoing: 100.85

Incoming: Please list Luciferase Assay % Lum recorded for the molecule O=S(=O)(NCCNC/C=C/c1ccc(Br)cc1)c1cccc2cnccc12 [H-89, reference compound]
Outgoing: 80.98

Incoming: Please list Luciferase Assay % Lum recorded for the molecule C#Cc1cccc(Nc2ncnc3cc(OCCOC)c(OCCOC)cc23)c1 [Erlotinib hydrochloride]
Outgoing: 82.34

###

- ASSAY_SYSTEM: full-length P. pyralis luciferase (Photinus pyralis, UniProt P08659, K549A/L550V/N119G/N50D/S548I)
- Assay type: cell-based
- CONDITION_DETAILS: CC_NCI screening; full-length luciferase counter-screen luminescence; normalized to on-plate 0.3% DMSO controls
Hi there, I'd appreciate the recorded Luciferase Assay % Lum for every entry that follows.
Give the figure together with its unit, number first.

Incoming: Please list Luciferase Assay % Lum recorded for the compound O=C(/C=C/c1cccc(S(=O)(=O)Nc2ccccc2)c1)NO
Outgoing: 87.87%

Incoming: Please list Luciferase Assay % Lum recorded for the compound CC(C)(C)c1nc(-c2cccc(NS(=O)(=O)c3c(F)cccc3F)c2F)c(-c2ccnc(N)n2)s1.CS(=O)(=O)O [Dabrafenib mesylate]
Outgoing: 100.50%

Incoming: Please list Luciferase Assay % Lum recorded for the compound Nc1nc(Cl)nc2c1ncn2[C@H]1C[C@H](O)[C@@H](CO)O1
Outgoing: 98.25%

Incoming: Please list Luciferase Assay % Lum recorded for the compound CS(=O)(=O)CCNCc1ccc(-c2ccc3ncnc(Nc4ccc(OCc5cccc(F)c5)c(Cl)c4)c3c2)o1
Outgoing: 87.41%

###

- ASSAY_SYSTEM: FGF14:Nav1.6 C-tail complex (Homo sapiens, UniProt Q92915+Q9UQD0)
- Construct: polymerase chain reaction (PCR) amplification of the FGF14 open reading frame (nt 1–855); C-terminal fragment of Nav1.6 (amino acids 1763–1976) fused with CD4ΔC-tail (amino acids 1–395); expressed in transfected cells
- Sequence (Q92915 1-252 isoform Q92915-2): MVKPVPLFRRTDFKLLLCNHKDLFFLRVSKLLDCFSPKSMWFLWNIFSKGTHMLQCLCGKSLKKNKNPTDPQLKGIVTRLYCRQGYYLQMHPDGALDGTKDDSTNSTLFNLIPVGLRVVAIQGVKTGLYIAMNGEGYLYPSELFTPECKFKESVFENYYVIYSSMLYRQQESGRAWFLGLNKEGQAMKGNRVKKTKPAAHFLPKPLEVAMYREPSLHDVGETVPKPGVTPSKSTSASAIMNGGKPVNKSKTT
- Sequence (Q9UQD0 1763-1976 limits assumed): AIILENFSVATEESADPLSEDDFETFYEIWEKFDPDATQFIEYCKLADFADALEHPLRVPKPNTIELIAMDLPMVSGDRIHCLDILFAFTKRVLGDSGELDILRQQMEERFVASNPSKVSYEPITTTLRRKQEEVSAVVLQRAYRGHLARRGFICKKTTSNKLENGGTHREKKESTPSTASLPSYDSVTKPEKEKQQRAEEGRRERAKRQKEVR
- PROTOCOL_DESCRIPTION: Split-luciferase complementation assay (LCA) in Clone V double stable HEK293 cells
- Format: cell-based
- CONDITION_DETAILS: CC_NCI screening, biological replicate Set 1; normalized to on-plate 0.3% DMSO controls
Tag: T if measured Split Luciferase Assay Z-score Set 1 is not below 0.7, F if it is.

Incoming: Determine whether this compound has Split Luciferase Assay Z-score Set 1 no lower than 0.7: CS(=O)(=O)CCNCc1ccc(-c2ccc3ncnc(Nc4ccc(OCc5cccc(F)c5)c(Cl)c4)c3c2)o1 [Lapatinib]
Outgoing: T

Incoming: Determine whether this compound has Split Luciferase Assay Z-score Set 1 no lower than 0.7: CS(=O)(=O)c1ccc(C(=O)Nc2ccc(Cl)c(-c3ccccn3)c2)c(Cl)c1 [GDC-0449]
Outgoing: T

Incoming: Determine whether this compound has Split Luciferase Assay Z-score Set 1 no lower than 0.7: NC(=O)Nc1cc(-c2cccc(F)c2)sc1C(=O)N[C@H]1CCCNC1 [AZD 7762]
Outgoing: F

Incoming: Determine whether this compound has Split Luciferase Assay Z-score Set 1 no lower than 0.7: Cc1nc2c(O)cccc2c(=O)[nH]1 [NU 1025]
Outgoing: F

Incoming: Determine whether this compound has Split Luciferase Assay Z-score Set 1 no lower than 0.7: O=C(CCCCCCC(=O)Nc1ccccc1)NO [VORINOSTAT]
Outgoing: F

Incoming: Determine whether this compound has Split Luciferase Assay Z-score Set 1 no lower than 0.7: CN(C)c1nc(N(C)C)nc(N(C)C)n1 [Altretamine]
Outgoing: F

Incoming: Determine whether this compound has Split Luciferase Assay Z-score Set 1 no lower than 0.7: Nc1ccccc1NC(=O)c1ccc(CNc2nccc(-c3cccnc3)n2)cc1 [MGCD0103]
Outgoing: F

Incoming: Determine whether this compound has Split Luciferase Assay Z-score Set 1 no lower than 0.7: O=C(O)CCCc1ccc(N(CCCl)CCCl)cc1 [Chlorambucil, reference compound]
Outgoing: T

Incoming: Determine whether this compound has Split Luciferase Assay Z-score Set 1 no lower than 0.7: CO[C@@]12[C@H](COC(N)=O)C3=C(C(=O)C(C)=C(N)C3=O)N1C[C@@H]1N[C@@H]12 [Mitomycin]
Outgoing: T

Incoming: Determine whether this compound has Split Luciferase Assay Z-score Set 1 no lower than 0.7: O=C1NC(=O)/C(=C/c2ccc(-c3ccc(F)cc3O)o2)S1 [AS 252424]
Outgoing: F

Incoming: Determine whether this compound has Split Luciferase Assay Z-score Set 1 no lower than 0.7: c1cc(-c2cnn3cc(-c4ccc(OCCN5CCCCC5)cc4)cnc23)ccn1 [COMPOUND C]
Outgoing: T

Incoming: Determine whether this compound has Split Luciferase Assay Z-score Set 1 no lower than 0.7: Oc1cccc(-c2nc(N3CCOCC3)c3oc4ncccc4c3n2)c1 [PI-103]
Outgoing: T

Incoming: Determine whether this compound has Split Luciferase Assay Z-score Set 1 no lower than 0.7: O=c1[nH]nc(Sc2ncc([N+](=O)[O-])s2)n1-c1ccc2c(c1)OCCO2 [JNK INHIBITOR X]
Outgoing: F

Incoming: Determine whether this compound has Split Luciferase Assay Z-score Set 1 no lower than 0.7: CS(=O)(=O)OCCCCOS(C)(=O)=O [Busulfan]
Outgoing: F

Incoming: Determine whether this compound has Split Luciferase Assay Z-score Set 1 no lower than 0.7: NC(=O)NO [Hydroxyurea]
Outgoing: F

Incoming: Determine whether this compound has Split Luciferase Assay Z-score Set 1 no lower than 0.7: CC(=O)O[C@H]1C(=O)[C@@]2(C)[C@H]([C@H](OC(=O)c3ccccc3)[C@]3(O)C[C@H](OC(=O)[C@H](O)[C@@H](NC(=O)c4ccccc4)c4ccccc4)C(C)=C1C3(C)C)[C@]1(OC(C)=O)CO[C@@H]1C[C@@H]2O [Paclitaxel]
Outgoing: F

Incoming: Determine whether this compound has Split Luciferase Assay Z-score Set 1 no lower than 0.7: C[C@@H](Oc1cc(-c2cnn(C3CCNCC3)c2)cnc1N)c1c(Cl)ccc(F)c1Cl [Crizotinib, reference compound]
Outgoing: F

Incoming: Determine whether this compound has Split Luciferase Assay Z-score Set 1 no lower than 0.7: COc1cc(O)c2c(c1)[C@H]1O[C@@H]1C[C@H](O)[C@H](O)C(=O)/C=C\C[C@H](C)OC2=O [HYPOTHEMYCIN]
Outgoing: F
